The reported measurements were obtained from the NIST ThermoML archive (doi:10.1021/je900550v).

condition-description: 305.9 K; 101.33 kPa; Liquid; Pulse-echo method
Below, each of the molecules is paired with its reported speed of sound value.
Unit m/s implied. Number only.

See these solved cases before continuing.
CCC(=O)[O-].C[NH2+]CCO [2-hydroxy-N-methylethanaminium propionate] :: 1667.1
C[NH2+]CCO.O=C[O-] [2-hydroxy-N-methylethanaminium formate] :: 1800.2
CC(C)C(=O)[O-].C[NH2+]CCO [2-hydroxy-N-methylethanaminium isobutyrate] :: 1589.4

Problem: Look up speed of sound: CCCC(=O)[O-].C[NH2+]CCO [N-methyl-2-hydroxyethylammonium butanoate]
Result: 1590.1

Problem: # speed of sound lookup, item CCCCC(=O)[O-].C[NH2+]CCO [2-hydroxy-N-methylethanaminium pentanoate]
Result: 1524.5
